Quick list: GI50 per entry.
test system: K562; assay: NCI tumour cell line growth inhibition, 48 h
The source made the active and inactive calls. No stated cut-off is given here; in the data, active = GI50 up to about 1.1 µM and inactive = higher.

A selection of reference data follows.
[
  {
    "recordSmiles": "CC(=O)Oc1ccc2c(c1)c1c(=O)oc(C)nc1n2Cc1ccccc1",
    "GI50": "50.8 µM (inactive)"
  },
  {
    "recordSmiles": "COc1ccc2oc(=O)c(-c3csc(-c4ccccc4)n3)cc2c1",
    "GI50": "> 100 µM (inactive)"
  }
]

Next, consider the following molecule.
Lookup: GI50 / K562 / C/C(=N\O)c1ccc(Nc2c3ccccc3nc3occc23)cc1
0.174 µM (active)

----------
tested on: NCI-H522; experiment: NCI tumour cell line growth inhibition, 48 h
Activity calls are given as the source filed them. No stated cut-off is given here; in the data, active = GI50 up to about 1.1 µM and inactive = higher.
readoutType: GI50

A selection of reference data follows.
[
  {
    "compound": "COc1ccc(N2C(=O)/C(=C\\c3cc(OC)c(OC)c(OC)c3)SC2c2ccccc2)cc1 (configuration not stated)",
    "readoutType": "GI50",
    "assayResult": "16.6 µM (inactive)"
  },
  {
    "compound": "O=[N+]([O-])c1cccc(/N=C2\\c3ccccc3CN2c2cccc([N+](=O)[O-])c2)c1",
    "readoutType": "GI50",
    "assayResult": "> 100 µM (inactive)"
  },
  {
    "compound": "Cc1nn(-c2ccccc2)c2c1C(c1cc3ccccc3nc1Cl)NC(=O)N2 (configuration not stated)",
    "readoutType": "GI50",
    "assayResult": "16.5 µM (inactive)"
  },
  {
    "compound": "CCC1=CCN(c2cc(C)ccn2)OC1c1ccccc1 (configuration not stated)",
    "readoutType": "GI50",
    "assayResult": "18.5 µM (inactive)"
  },
  {
    "compound": "CC(C)(C)CC(N)=O",
    "readoutType": "GI50",
    "assayResult": "> 100 µM (inactive)"
  }
]

Can you look up the measured GI50 of CN(C)c1ccc(/C=c2\sc3nnc(-c4cccnc4)n3c2=O)cc1 for me?
> 100 µM (inactive)

Can you look up the measured GI50 of CC1(C)C(=O)OC(n2cc(F)c(=O)[nH]c2=O)C1=O (configuration not stated) for me?
> 100 µM (inactive)

Can you look up the measured GI50 of COc1ccc(/C=C/C(=O)C(C)(C)C)cc1OC for me?
34.8 µM (inactive)

Can you look up the measured GI50 of NC(=O)COc1ccccc1 for me?
> 100 µM (inactive)

Can you look up the measured GI50 of O=[N+]([O-])C[C@@]12O[C@]3(O)C4C5CC(C6C5C3C61)C42 (some centres not stated) for me?
> 100 µM (inactive)

Can you look up the measured GI50 of Cc1coc2c1C[C@@]1(C)[C@H](CCC[C@@H]1C)[C@H]2O for me?
22.4 µM (inactive)

Can you look up the measured GI50 of Clc1cc(OC23CC4CC(CC(C4)C2)C3)nc(Cl)n1 for me?
90.2 µM (inactive)

Can you look up the measured GI50 of O=c1[nH]n(CCc2ccccc2CCl)c2ccc([N+](=O)[O-])cc12 for me?
52.6 µM (inactive)

Can you look up the measured GI50 of CCOC(=O)CP(=S)(S)c1ccccc1 (configuration not stated) for me?
> 100 µM (inactive)

Can you look up the measured GI50 of COC(=O)C(=O)C(C(=O)C(=O)Nc1cccc([N+](=O)[O-])c1)c1nc2ccc(Cl)cc2nc1O (configuration not stated) for me?
> 100 µM (inactive)

Can you look up the measured GI50 of Cc1ccc(/N=N/C(C2=NC(=O)CS2)c2nc3ccccc3[nH]2)cc1 (configuration not stated) for me?
> 100 µM (inactive)

Can you look up the measured GI50 of CC(C)CCNC(=O)c1ccc(CNC(=O)/C=C/c2csc(-c3ccccc3)n2)cc1 for me?
41 µM (inactive)

Values were extracted from ChEMBL document CHEMBL1201862.
